Assay: NCI Yeast Anticancer Drug Screen. Data for the rad50 strain (AID 155);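 also: 0% = growth of vehicle-only cultures of the same strain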
Conditions: S. cerevisiae rad50 strain growth inhibition; at 50.0 µM; stronger effect = higher value
About 79,000 compounds went through this panel and 15% of them were active in at least one assay; those are over-represented in the sample as a whole.
MEASURED ENDPOINT: growth inhibition (%)

>  <MOLECULE>
N#CCCOCCNCCSC(=O)c1ccccc1

>  <MEASURED ENDPOINT>
growth inhibition

>  <RECORDED VALUE>
36.8

$$$$
>  <MOLECULE>
O=C1OC(c2ccc([N+](=O)[O-])cc2)=N/C1=C\c1ccc(Cl)c(Cl)c1

>  <MEASURED ENDPOINT>
growth inhibition

>  <RECORDED VALUE>
31.9

$$$$
>  <MOLECULE>
COC(=O)c1ccccc1C1CN=NC12Cc1c(ccc3c1CCC3)C2=O (stereo not given)

>  <MEASURED ENDPOINT>
growth inhibition

>  <RECORDED VALUE>
-4.35

$$$$
>  <MOLECULE>
NNC(=O)C1C2C=CC(C2)C1C(=O)NN (stereo not given)

>  <MEASURED ENDPOINT>
growth inhibition

>  <RECORDED VALUE>
7.6

$$$$
>  <MOLECULE>
C=C1C(=O)OC2C[C@@]3(C)CCCC(=C)C3CC12 (stereo not given in full)

>  <MEASURED ENDPOINT>
growth inhibition

>  <RECORDED VALUE>
21.4

$$$$
>  <MOLECULE>
S=C1N=C(Cl)/C(=C\c2ccccc2)N1

>  <MEASURED ENDPOINT>
growth inhibition

>  <RECORDED VALUE>
-4.65

$$$$
>  <MOLECULE>
COc1cccc(N2C(=O)c3c(c4[nH]c5ccccc5c4c4ccc(C(C)(C)C)cc34)C2=O)c1

>  <MEASURED ENDPOINT>
growth inhibition

>  <RECORDED VALUE>
-19.2

$$$$
>  <MOLECULE>
COC(=O)c1cc(=O)c2scc(C)[n+]2[nH]1

>  <MEASURED ENDPOINT>
growth inhibition

>  <RECORDED VALUE>
-5.4

$$$$
>  <MOLECULE>
CCCCCCn1c(=O)cc2n(c1=O)CCC2

>  <MEASURED ENDPOINT>
growth inhibition

>  <RECORDED VALUE>
30

$$$$
>  <MOLECULE>
COC(=O)Nc1c2c(nc3ccccc13)-c1ccccc1C(C)(C)C2OC (stereo not given)

>  <MEASURED ENDPOINT>
growth inhibition

>  <RECORDED VALUE>
49.5

$$$$
>  <MOLECULE>
CC(=O)OCCN(C)C

>  <MEASURED ENDPOINT>
growth inhibition

>  <RECORDED VALUE>
3.4

$$$$
>  <MOLECULE>
NCCNC(=O)Cc1cccc2ccccc12

>  <MEASURED ENDPOINT>
growth inhibition

>  <RECORDED VALUE>
-21.1

$$$$
>  <MOLECULE>
O=Cc1cccc2[nH]ccc12

>  <MEASURED ENDPOINT>
growth inhibition

>  <RECORDED VALUE>
5.9

$$$$
>  <MOLECULE>
O=C(NCCc1ccccc1)[C@H]1CCCC[C@@H]1CCO

>  <MEASURED ENDPOINT>
growth inhibition

>  <RECORDED VALUE>
19.4

$$$$
>  <MOLECULE>
OC12C=CC(CCCC1)O2 (stereo not given)

>  <MEASURED ENDPOINT>
growth inhibition

>  <RECORDED VALUE>
0.35

$$$$
>  <MOLECULE>
O=C1/C(=C/c2ccc(Cl)cc2)COc2ccc(Br)cc21

>  <MEASURED ENDPOINT>
growth inhibition

>  <RECORDED VALUE>
26.1

$$$$
>  <MOLECULE>
C#CCN(CC#C)C(=O)C(=O)c1c[nH]c2ccc(OC)cc12

>  <MEASURED ENDPOINT>
growth inhibition

>  <RECORDED VALUE>
41.2

$$$$
>  <MOLECULE>
N#C/C(=C\C=C\c1ccccc1)C(N)=O

>  <MEASURED ENDPOINT>
growth inhibition

>  <RECORDED VALUE>
-57.8

$$$$
>  <MOLECULE>
Fc1cccc2c1Cc1ccccc1-2

>  <MEASURED ENDPOINT>
growth inhibition

>  <RECORDED VALUE>
5.75

$$$$
>  <MOLECULE>
CN(c1ccccc1Cl)S(=O)(=O)c1ccc([N+](=O)[O-])cc1

>  <MEASURED ENDPOINT>
growth inhibition

>  <RECORDED VALUE>
-14.2

$$$$
>  <MOLECULE>
CN(Nc1c([N+](=O)[O-])cc([N+](=O)[O-])cc1[N+](=O)[O-])c1ccc2ccccc2c1

>  <MEASURED ENDPOINT>
growth inhibition

>  <RECORDED VALUE>
14.2

$$$$
>  <MOLECULE>
Cc1ccc(S(=O)(=O)N(CCO)CCCO)cc1

>  <MEASURED ENDPOINT>
growth inhibition

>  <RECORDED VALUE>
-16.7

$$$$
>  <MOLECULE>
O=C(O)/C=C/C(=O)Nc1cc2c(cc1Br)-c1ccccc1C2O (stereo not given)

>  <MEASURED ENDPOINT>
growth inhibition

>  <RECORDED VALUE>
-2.75

$$$$
>  <MOLECULE>
CCCCCCCCCCCCCCCCCCNc1nc(=O)n(C2CC(O)C(COP(=O)(O)O)O2)cc1F (stereo not given)

>  <MEASURED ENDPOINT>
growth inhibition

>  <RECORDED VALUE>
12.9

$$$$
>  <MOLECULE>
CN1CCN(C(=S)C(O)(c2ccccc2)c2ccccc2)CC1

>  <MEASURED ENDPOINT>
growth inhibition

>  <RECORDED VALUE>
1.75

$$$$
